- test-system: SHP2 catalytic domain (SHP2cat; residues 248–527) (Homo sapiens)
- Construct: the SHP2 catalytic domain (SHP2cat; residues 248–527); made in house
- Sequence (Q06124 248-527): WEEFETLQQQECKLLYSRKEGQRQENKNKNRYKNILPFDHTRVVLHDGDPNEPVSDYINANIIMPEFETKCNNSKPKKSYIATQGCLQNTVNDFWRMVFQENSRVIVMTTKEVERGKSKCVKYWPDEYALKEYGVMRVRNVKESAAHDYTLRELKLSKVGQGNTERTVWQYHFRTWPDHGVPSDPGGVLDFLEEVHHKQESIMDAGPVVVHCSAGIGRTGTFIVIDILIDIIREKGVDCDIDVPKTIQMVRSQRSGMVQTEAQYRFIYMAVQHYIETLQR
- assay-explanation: DiFMUP fluorescence phosphatase inhibition assay, SHP2cat
- Type: biochemical
- measurement-parameters: DiFMUP at Km (20 μM), pH 6.0; read-out: SHP2cat; IC50
readout-kind: IC50

O=C1CCCC1=Cc1ccc(-c2ccc(O)c(C(=O)Nc3ccccc3)c2)o1 [SBI-3192]: 1.1 µM
O=C1/C(=C/c2ccc(-c3ccc(O)c(-c4nn[nH]n4)c3)o2)Sc2ccccc21 [SBI-3405]: 2 µM

We now examine a further compound.
Item O=C1CCCC1=Cc1ccc(-c2ccc(O)c(C(=O)O)c2)o1 [SBI-3191] has what recorded IC50?
7.4 µM

----------
- test-system: full-length SHP2-E76K oncogenic mutant (Homo sapiens, UniProt Q06124, E76K)
- Construct: Recombinant human full-length SHP2 (1–594) WT and E76K mutants
- assay-explanation: DiFMUP fluorescence phosphatase inhibition assay, SHP2-E76K
- measurement-parameters: DiFMUP at Km (20 μM), 10-point dose–response, pH 6.0
Recorded measurements of IC50, one per entry
Give the value, in units of µM, as a plain number.

O=C(NNc1ccccc1)c1cc(-c2ccc(/C=C3\Sc4ccccc4C3=O)o2)ccc1O: 11
O=C(Nc1ccccc1)c1cccc(-c2ccc(/C=C3\Sc4ccccc4C3=O)o2)c1: 52
COc1ccc(-c2ccc(/C=C3\Sc4ccccc4C3=O)o2)cc1C(=O)Nc1ccccc1: 84
O=C1CCCCC1=Cc1ccc(-c2ccc(O)c(C(=O)O)c2)o1: 39
O=C(Nc1ccccc1)c1cc(-c2ccc(/C=C3\Sc4ccccc4C3=O)o2)ccc1O: 1.8

Any idea what IC50 was measured for "O=C1/C(=C/c2ccc(-c3ccc(O)c(C(=O)N4CCNCC4)c3)o2)Sc2ccccc21" ?
91

And what about the molecule "CC(C)NC(=O)c1cc(-c2ccc(/C=C3\Sc4ccccc4C3=O)o2)ccc1O" ?
20

Also, "Nc1cccc(NC(=O)c2cc(-c3ccc(/C=C4\Sc5ccccc5C4=O)o3)ccc2O)c1" please.
7.2

----------
Each record here notes measured IC50.
- test-system: full-length SHP2 WT (SHP2-WT) (Homo sapiens, UniProt Q06124)
- Construct: Recombinant human full-length SHP2 (1–594) WT and E76K mutants
- assay-explanation: DiFMUP fluorescence phosphatase inhibition assay, SHP2-WT activated with IRS-1 peptide
- measurement-parameters: DiFMUP at Km (60 μM), pH 6.0
Give the quantity in µM, number only.

Illustrative cases are given below, each with its answer.
O=C1CCCC1=Cc1ccc(-c2ccc(O)c(C(=O)Nc3ccccc3)c2)o1: 4.1
O=C(Nc1ccccc1)c1cccc(-c2ccc(/C=C3\Sc4ccccc4C3=O)o2)c1: 62

So what does the record say about IC50 for "CC(C)NC(=O)c1cc(-c2ccc(/C=C3\Sc4ccccc4C3=O)o2)ccc1O" ?
53

Also, "O=C1CCCC1=Cc1ccc(-c2ccc(O)c(C(=O)O)c2)o1" please.
24
